Molecular target: Human 5-lipoxygenase (Homo sapiens)
Construct: purchased Cayman 60402; host or cells: insect cells
Sequence (P09917 whole entry): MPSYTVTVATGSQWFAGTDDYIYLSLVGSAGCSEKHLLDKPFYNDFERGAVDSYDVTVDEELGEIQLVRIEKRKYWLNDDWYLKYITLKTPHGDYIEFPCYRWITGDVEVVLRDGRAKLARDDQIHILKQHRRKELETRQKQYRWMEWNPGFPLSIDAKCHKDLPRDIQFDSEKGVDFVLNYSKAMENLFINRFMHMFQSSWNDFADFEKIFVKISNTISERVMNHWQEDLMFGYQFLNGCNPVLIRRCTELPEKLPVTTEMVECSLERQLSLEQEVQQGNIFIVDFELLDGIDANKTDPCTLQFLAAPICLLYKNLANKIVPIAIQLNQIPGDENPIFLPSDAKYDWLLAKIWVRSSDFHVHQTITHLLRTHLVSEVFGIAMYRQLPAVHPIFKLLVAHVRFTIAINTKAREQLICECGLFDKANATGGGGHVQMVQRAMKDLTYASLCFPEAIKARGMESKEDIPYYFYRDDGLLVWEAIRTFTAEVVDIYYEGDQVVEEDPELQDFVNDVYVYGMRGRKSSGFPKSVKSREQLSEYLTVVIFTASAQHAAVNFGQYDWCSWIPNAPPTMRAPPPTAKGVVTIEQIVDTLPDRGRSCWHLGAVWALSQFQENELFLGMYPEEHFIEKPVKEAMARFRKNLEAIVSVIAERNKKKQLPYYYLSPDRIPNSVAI
Test: Activity of compounds against 5-LO enzyme (LTB4 measurement and/or fluorescence method)
Type: biochemical
Details: 5-LO, single concentration of 10 uM in duplicate
recorded_metric: inhibition at 10 µM

# per-item lookup of inhibition at 10 µM; items listed below
1. CCc1nc2ccc(Cl)cn2c1C(=O)NCc1ccc(N2CCC(c3ccc(Cl)cc3)CC2)cc1
2. CCc1nc2ccc(F)cn2c1C(=O)NCc1ccc(OC(F)(F)F)cc1
3. CCc1nc2ccc(Cl)cn2c1C(=O)NCc1ccc(N2CCC(C(=O)O)CC2)cc1
4. CCc1nc2c[n+]([O-])ccn2c1C(=O)NCc1ccc(-c2ccc(Cl)cc2)cc1

> 69%
40 to 69%
< 40%
40 to 69%
